- assayedSystem: HLA-A*31:01
- runDescription: IEDB peptide-MHC binding, purified MHC/direct/fluorescence; filed as Kd, often an IC50 or EC50 that approximates it; bounds were set here for any values at or beyond the usual limits of such assays
- conditionLabel: source organism: Bacillus licheniformis
pKd: −log10 of the molar value.

{"sequenceString": "ALMEITSRY", "pKd": 5.28}

###

- assayedSystem: HLA-B*46:01
- runDescription: IEDB peptide-MHC binding, purified MHC/competitive/fluorescence; filed as Kd, often an IC50 or EC50 that approximates it; bounds were set here for any values at or beyond the usual limits of such assays
- conditionLabel: source organism: Entamoeba dispar SAW760
pKd: −log10 of the molar value.

{"sequenceString": "KDGTLFYCY", "pKd": "≤ 4.70"}
